target: UniProtKB O14744
Sequence (O14744 whole entry): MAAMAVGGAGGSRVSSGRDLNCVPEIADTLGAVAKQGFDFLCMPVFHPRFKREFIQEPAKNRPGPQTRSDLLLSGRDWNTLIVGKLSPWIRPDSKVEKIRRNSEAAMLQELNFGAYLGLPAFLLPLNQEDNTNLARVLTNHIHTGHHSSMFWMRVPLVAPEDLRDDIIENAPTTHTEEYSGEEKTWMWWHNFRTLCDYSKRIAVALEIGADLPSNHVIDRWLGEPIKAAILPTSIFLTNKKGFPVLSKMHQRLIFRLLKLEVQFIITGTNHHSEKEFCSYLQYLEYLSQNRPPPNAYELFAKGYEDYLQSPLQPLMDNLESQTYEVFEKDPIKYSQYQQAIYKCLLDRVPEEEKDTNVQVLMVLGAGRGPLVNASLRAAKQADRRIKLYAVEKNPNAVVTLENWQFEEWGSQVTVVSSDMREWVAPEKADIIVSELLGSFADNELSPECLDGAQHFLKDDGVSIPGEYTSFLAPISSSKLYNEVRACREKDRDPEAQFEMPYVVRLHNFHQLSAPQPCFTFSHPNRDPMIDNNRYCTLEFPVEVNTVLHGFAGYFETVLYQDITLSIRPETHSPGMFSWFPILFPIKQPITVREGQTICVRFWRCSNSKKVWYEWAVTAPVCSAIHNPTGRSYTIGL
assay.protocol: Selectivity interaction (Methyltransferase panel) EUB0000196bCl PRMT5
measured.parameter: EC50

Query :: // EC50 lookup, key: O=C([C@@H](Cc1cccc(C(F)(F)F)c1)NS(=O)(=O)c1cc(F)c2c(c1)CCNC2)N1CCCC1
Result :: > 10 µM

====

target: Histamine H3 receptor (Homo sapiens, UniProt Q9Y5N1)
assay.protocol: Selectivity interaction (PSP Principial panel 20118+ (panel of GPCRs, transporter, and ion channels)) EUB0000283b HRH3
measured.parameter: pIC50
Lab note: report pIC50 as minus log10 of the concentration in molar units, number only.

Query :: // pIC50 lookup, key: C[C@H]1CCCN1Cc1nc2cc(NC(=O)c3ccc4cnccc4c3)ccc2[nH]1
Result :: 6.54

====

target: Mitogen-activated protein kinase 3 (Homo sapiens, UniProt P27361)
Sequence (P27361 whole entry): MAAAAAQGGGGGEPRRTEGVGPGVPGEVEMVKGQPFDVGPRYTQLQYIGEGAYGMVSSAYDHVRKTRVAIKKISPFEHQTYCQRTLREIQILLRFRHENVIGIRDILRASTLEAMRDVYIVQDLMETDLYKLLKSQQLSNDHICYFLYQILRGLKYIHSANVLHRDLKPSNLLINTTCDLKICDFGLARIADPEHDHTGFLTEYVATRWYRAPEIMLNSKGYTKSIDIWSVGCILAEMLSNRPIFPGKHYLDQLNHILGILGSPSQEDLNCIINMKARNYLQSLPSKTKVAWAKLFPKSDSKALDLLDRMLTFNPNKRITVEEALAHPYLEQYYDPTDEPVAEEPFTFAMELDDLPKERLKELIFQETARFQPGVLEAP
assay.protocol: Selectivity interaction (MSD Pharma/Taiwan screen (enzymes and receptors) ) EUB0000296b MAPK3
measured.parameter: IC50 (µM)
All answers are understood in µM, so give the number only.

Query :: // IC50 lookup, key: CC(=O)Nc1c(C(C)=O)c(=O)n(C)c2nc(-c3ccc(Cl)cc3Cl)c(-c3ccc(Cl)cc3)cc12
Result :: 8.61

====

target: Interstitial collagenase (Homo sapiens)
Sequence (P03956 whole entry): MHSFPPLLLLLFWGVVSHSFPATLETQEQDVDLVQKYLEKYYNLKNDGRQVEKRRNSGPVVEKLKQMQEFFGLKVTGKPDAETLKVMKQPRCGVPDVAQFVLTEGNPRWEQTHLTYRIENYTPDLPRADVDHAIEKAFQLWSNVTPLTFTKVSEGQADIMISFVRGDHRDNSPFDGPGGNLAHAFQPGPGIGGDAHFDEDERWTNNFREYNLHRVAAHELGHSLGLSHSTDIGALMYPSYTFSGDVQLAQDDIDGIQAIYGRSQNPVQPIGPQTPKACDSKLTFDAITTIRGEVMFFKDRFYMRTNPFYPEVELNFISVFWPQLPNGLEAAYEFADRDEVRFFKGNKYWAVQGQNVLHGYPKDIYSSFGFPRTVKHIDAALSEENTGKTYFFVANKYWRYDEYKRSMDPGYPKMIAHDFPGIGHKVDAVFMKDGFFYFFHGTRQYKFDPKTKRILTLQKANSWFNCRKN
assay.protocol: Selectivity interaction (MMPs panel (Panlabs panel, Bayer)) EUB0000725a MMP1
pIC50: −log10 of the molar value.
measured.parameter: pIC50

Query :: // pIC50 lookup, key: O=C(O)[C@@H]1[C@@H](Cn2nnc3ccccc3c2=O)CC[C@H]1C(=O)c1ccc(OCCC2CCOCC2)cc1 [BAY-694]
Result :: < 5.00

====

target: Gamma-aminobutyric acid receptor subunit alpha-1 (Homo sapiens)
Sequence (P14867 whole entry): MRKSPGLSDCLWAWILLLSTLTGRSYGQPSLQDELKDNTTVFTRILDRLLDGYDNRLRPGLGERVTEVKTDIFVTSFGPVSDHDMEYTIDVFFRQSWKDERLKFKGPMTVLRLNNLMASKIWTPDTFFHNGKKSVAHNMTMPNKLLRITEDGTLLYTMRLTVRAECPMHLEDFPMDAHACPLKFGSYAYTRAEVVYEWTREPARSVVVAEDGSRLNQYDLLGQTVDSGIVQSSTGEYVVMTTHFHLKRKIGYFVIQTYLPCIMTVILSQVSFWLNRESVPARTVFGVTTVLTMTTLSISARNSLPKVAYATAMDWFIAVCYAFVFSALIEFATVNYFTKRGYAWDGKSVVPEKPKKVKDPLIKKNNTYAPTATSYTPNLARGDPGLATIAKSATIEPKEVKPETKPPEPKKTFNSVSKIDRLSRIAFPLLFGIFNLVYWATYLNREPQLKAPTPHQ
assay.protocol: Selectivity interaction (GPCR panel (PDSP screen)) EUB0000587a GABRA1
measured.parameter: pKi
Lab note: report pKi as minus log10 of the concentration in molar units, number only.

Query :: // pKi lookup, key: CCNC(=O)c1cc2c(N3CCOC[C@@H]3C)ccnc2n1C
Result :: 6.65

====

target: Sigma non-opioid intracellular receptor 1 (Homo sapiens)
assay.protocol: Selectivity interaction (GPCR panel (PDSP screen)) EUB0000748a SIGMAR1
measured.parameter: pKi
Lab note: report pKi as minus log10 of the concentration in molar units, number only.

Query :: // pKi lookup, key: Cn1c(-c2csc(C3CCN(CC4=NC5N=CC=CC5N4)CC3)n2)nc2ccccc21 (stereo unspecified)
Result :: 5.90

====

target: Calcium/calmodulin-dependent protein kinase type II subunit beta (Homo sapiens, UniProt Q13554)
Sequence (Q13554 whole entry): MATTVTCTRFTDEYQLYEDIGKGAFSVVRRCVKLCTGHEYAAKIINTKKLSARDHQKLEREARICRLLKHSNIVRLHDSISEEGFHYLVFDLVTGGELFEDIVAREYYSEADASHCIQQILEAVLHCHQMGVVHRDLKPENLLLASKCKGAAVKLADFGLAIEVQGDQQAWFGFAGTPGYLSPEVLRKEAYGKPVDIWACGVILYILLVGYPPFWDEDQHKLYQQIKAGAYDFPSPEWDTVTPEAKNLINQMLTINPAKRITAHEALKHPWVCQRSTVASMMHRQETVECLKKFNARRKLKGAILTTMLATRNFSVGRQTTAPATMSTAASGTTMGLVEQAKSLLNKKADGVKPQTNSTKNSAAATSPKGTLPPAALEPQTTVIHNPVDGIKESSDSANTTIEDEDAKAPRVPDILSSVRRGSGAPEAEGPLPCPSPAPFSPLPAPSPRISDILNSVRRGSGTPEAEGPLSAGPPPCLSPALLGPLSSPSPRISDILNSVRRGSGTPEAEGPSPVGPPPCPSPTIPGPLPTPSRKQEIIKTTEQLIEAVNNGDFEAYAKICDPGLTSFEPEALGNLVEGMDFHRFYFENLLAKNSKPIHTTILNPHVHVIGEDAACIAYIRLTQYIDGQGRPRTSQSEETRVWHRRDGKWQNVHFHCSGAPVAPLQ
assay.protocol: Selectivity interaction (Upstate Kinase Profiler service (Millipore)) EUB0000056c CAMK2B
measured.parameter: IC50 (µM)
All answers are understood in µM, so give the number only.

Query :: // IC50 lookup, key: Cc1ccc(-c2ccc3c(ccc4sc5c(c43)NC[C@@H](C)NC5=O)n2)cn1
Result :: 0.07

====

target: Histone-lysine N-methyltransferase EZH2 (Homo sapiens)
assay.protocol: Selectivity interaction (Methyltransferase panel) EUB0000196bCl EZH2
pEC50: −log10 of the molar value.
measured.parameter: pEC50

Query :: // pEC50 lookup, key: O=C([C@@H](Cc1cccc(C(F)(F)F)c1)NS(=O)(=O)c1cc(F)c2c(c1)CCNC2)N1CCCC1
Result :: < 5.00

====

target: Histone-lysine N-methyltransferase, H3 lysine-79 specific (Homo sapiens)
Sequence (Q8TEK3 whole entry): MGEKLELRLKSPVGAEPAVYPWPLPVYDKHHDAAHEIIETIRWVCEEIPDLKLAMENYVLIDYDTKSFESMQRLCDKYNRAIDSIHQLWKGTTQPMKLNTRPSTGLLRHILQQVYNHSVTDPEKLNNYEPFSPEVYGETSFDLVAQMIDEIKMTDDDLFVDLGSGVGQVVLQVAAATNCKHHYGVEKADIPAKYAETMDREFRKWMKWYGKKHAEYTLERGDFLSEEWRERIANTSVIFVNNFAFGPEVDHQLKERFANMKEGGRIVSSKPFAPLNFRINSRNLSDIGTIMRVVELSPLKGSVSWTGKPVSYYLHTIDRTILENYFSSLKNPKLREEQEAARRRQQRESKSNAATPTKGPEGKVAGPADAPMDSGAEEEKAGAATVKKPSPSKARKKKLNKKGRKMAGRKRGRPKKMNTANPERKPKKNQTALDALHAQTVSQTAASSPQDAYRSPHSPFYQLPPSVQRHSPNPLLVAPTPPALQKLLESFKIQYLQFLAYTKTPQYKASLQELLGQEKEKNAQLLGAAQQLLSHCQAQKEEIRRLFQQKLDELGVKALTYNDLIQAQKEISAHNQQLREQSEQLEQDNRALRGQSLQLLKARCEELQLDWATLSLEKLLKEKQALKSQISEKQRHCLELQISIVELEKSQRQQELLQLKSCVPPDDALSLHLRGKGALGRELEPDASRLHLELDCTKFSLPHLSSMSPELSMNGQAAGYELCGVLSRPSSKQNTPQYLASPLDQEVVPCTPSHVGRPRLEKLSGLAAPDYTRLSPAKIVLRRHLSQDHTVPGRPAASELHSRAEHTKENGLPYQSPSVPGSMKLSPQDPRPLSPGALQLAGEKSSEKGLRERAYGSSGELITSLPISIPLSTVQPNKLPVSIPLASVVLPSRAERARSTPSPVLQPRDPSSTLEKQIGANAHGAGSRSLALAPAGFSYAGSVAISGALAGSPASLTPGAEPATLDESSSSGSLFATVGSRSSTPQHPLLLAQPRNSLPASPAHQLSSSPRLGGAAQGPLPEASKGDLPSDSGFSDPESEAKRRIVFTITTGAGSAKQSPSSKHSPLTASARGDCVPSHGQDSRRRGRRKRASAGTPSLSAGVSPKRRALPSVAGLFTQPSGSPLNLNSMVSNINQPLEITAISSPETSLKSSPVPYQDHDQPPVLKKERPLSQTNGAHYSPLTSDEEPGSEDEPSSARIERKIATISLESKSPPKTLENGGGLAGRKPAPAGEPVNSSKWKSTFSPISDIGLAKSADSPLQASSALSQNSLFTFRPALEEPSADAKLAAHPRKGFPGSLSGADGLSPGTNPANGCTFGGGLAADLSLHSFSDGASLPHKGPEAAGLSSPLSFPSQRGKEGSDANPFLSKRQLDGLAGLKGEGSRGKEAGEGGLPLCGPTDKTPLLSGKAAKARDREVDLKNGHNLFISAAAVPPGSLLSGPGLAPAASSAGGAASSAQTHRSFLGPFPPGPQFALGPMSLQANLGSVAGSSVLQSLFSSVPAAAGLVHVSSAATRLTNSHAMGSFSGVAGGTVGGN
assay.protocol: Selectivity interaction (Methyltransferase panel) EUB0000196bCl DOT1L
measured.parameter: EC50

Query :: Enter reported EC50 observed with Histone-lysine N-methyltransferase, H3 lysine-79 specific (Homo sapiens) for O=C([C@@H](Cc1cccc(C(F)(F)F)c1)NS(=O)(=O)c1cc(F)c2c(c1)CCNC2)N1CCCC1
Result :: > 10 µM

====

target: Glycogen synthase kinase-3 beta (Homo sapiens)
assay.protocol: Selectivity interaction (Kinase panel (enzymatic assay)) EUB0000153b GSK3B
pIC50: −log10 of the molar value.
measured.parameter: pIC50

Query :: // pIC50 lookup, key: CNc1nc(-c2ccc3c(N)n[nH]c3c2)cc(N2C[C@@H](C(=O)NC3CCCCC3)CC[C@H]2C)n1
Result :: < 5.00

====

target: Chymase (Homo sapiens)
Sequence (P23946 whole entry): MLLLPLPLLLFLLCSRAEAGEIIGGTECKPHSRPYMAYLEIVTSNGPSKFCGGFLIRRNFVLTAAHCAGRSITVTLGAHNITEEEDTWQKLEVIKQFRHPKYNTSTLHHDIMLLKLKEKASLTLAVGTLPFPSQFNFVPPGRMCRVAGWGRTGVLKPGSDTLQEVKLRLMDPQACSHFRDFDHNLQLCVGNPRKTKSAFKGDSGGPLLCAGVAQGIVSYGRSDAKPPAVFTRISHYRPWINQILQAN
assay.protocol: Selectivity interaction (Serine protease panel) EUB0000735a CMA1
measured.parameter: IC50

Query :: Enter reported IC50 observed with Chymase (Homo sapiens) for CC(=O)C1=C(C)N(c2cccc(C(F)(F)F)c2)C(=O)N[C@@H]1c1ccc(C#N)nc1
Result :: > 30 µM

====

target: Dual specificity tyrosine-phosphorylation-regulated kinase 1A (Homo sapiens, UniProt Q13627)
assay.protocol: Selectivity interaction (NanoBRET assay (HEK293T cells)) EUB0000009b DYRK1A
pKi: −log10 of the molar value.
measured.parameter: pKi

Query :: // pKi lookup, key: Cn1cc(-c2ccc3occ(-c4ccccc4-c4ccccc4)c3n2)cn1
Result :: < 5.00

====

target: Insulin receptor-related protein (Homo sapiens, UniProt P14616)
Sequence (P14616 27-742 limits assumed): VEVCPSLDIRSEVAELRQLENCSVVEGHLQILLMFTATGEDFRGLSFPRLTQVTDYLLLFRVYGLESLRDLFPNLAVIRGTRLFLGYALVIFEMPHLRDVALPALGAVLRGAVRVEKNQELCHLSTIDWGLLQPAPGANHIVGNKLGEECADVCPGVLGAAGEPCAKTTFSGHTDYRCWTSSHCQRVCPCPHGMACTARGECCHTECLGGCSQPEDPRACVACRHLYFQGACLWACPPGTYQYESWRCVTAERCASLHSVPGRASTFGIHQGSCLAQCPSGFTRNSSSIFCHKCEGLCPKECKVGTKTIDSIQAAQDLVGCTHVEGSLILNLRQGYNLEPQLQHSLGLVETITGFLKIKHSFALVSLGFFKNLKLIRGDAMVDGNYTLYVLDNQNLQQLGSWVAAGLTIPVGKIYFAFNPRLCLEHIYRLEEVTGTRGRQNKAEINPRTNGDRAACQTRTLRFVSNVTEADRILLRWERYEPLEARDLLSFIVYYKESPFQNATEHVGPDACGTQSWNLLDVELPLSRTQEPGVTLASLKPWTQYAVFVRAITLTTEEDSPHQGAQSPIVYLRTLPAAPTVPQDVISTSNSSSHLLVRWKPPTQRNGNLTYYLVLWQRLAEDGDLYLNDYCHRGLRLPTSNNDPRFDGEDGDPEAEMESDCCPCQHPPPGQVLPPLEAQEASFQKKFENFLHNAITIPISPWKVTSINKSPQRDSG
Sequence (P14616 747-1297 limits assumed): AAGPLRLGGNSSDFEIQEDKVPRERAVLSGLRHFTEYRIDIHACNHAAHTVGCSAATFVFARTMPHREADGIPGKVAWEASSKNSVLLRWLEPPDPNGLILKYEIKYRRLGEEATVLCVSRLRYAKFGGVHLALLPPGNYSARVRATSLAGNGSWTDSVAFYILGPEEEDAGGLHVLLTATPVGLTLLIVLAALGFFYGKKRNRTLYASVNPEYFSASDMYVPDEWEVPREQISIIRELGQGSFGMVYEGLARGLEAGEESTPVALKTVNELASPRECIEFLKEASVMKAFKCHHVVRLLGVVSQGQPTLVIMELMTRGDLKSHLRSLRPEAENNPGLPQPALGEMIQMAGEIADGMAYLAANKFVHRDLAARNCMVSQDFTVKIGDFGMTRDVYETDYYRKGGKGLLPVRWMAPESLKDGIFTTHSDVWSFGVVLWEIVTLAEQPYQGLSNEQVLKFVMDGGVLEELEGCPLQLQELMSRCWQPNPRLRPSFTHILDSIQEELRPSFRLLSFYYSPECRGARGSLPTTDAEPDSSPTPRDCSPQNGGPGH
assay.protocol: Selectivity interaction (Enzymatic assay) EUB0000609a INSRR
measured.parameter: pIC50
Lab note: report pIC50 as minus log10 of the concentration in molar units, number only.

Query :: // pIC50 lookup, key: COc1cc(N2CCC(O)CC2)ccc1Nc1cc(Nc2ccccc2S(=O)(=O)C(C)C)c2cc[nH]c2n1
Result :: 5.92

====

target: Sigma non-opioid intracellular receptor 1 (Homo sapiens)
assay.protocol: Selectivity interaction (GPCR panel (PDSP screen)) EUB0000540a SIGMAR1
measured.parameter: Ki (µM)
All answers are understood in µM, so give the number only.

Query :: // Ki lookup, key: O=C(Nc1cccnn1)N1CC(C/C=C/c2cncc(Oc3ccc(C(F)(F)F)cn3)n2)C1
Result :: 0.472

====

target: Gamma-aminobutyric acid receptor subunit alpha-1 (Homo sapiens)
assay.protocol: Selectivity interaction (GPCR panel (PDSP screen)) EUB0000720a GABRA1
measured.parameter: Ki
# answer = value followed by unit

Query :: // Ki lookup, key: CN1C(=O)[C@@H](N2CCc3c(nn(Cc4ccccc4)c3Br)C2=O)COc2ccccc21
Result :: 347 nM

====

target: Alpha-1B adrenergic receptor (Homo sapiens)
Sequence (P35368 whole entry): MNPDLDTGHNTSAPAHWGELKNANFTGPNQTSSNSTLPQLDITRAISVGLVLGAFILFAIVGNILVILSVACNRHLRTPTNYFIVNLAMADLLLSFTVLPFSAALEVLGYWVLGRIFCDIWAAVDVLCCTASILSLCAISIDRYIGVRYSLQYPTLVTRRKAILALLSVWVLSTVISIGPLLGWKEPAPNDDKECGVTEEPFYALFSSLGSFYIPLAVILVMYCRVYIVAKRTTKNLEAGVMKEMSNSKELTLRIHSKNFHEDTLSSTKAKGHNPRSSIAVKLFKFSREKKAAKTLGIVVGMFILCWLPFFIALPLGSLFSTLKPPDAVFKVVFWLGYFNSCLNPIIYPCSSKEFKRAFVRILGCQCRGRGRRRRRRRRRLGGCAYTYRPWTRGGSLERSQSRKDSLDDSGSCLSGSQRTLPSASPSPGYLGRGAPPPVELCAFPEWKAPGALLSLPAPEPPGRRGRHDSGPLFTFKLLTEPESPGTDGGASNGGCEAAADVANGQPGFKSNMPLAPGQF
assay.protocol: Selectivity interaction (GPCR panel (PDSP screen)) EUB0000300bCl ADRA1B
measured.parameter: Ki

Query :: // Ki lookup, key: C[C@@H](c1cccc(CN)c1)n1cc(Cl)cc(C(N)=O)c1=N
Result :: > 1.2 µM
